As shown below, each of these compounds has a reported GI50 value.
System: human SKM-1 acute myeloid leukemia cells
Procedure Text: SKM-1 antiproliferation cell-based assay (ATPlite)
Condition Context: Homo sapiens, SKM-1, 96 h, SKM-1 antiproliferation assay, 4 days, Table C2

{"columns": ["Compound", "Readout", "Meas Value"],
 "data": [
  ["Cn1ccn(-c2ccc(-c3cc(F)cc(-c4ccc(C(F)(F)F)c(N5CCN(C(C)(C)C)CC5)c4)c3O)cc2Cl)c1=O", "GI50", "30 to 300 nM"],
  ["Cn1ccn(-c2ccc(-c3cc(F)cc(-c4ccnc(N5CC[C@H](N6CCOCC6)C5)c4)c3O)cc2Cl)c1=O", "GI50", "0.3 to 30 nM"],
  ["CN1CCN(c2ccc(-c3cccc(-c4ccnc(N5CCNCC5)c4)c3O)cc2Cl)C1=O", "GI50", "30 to 300 nM"],
  ["Cn1ccn(-c2ccc(-c3cc(F)cc(-c4cc(N5CCN6CCCCC6C5)c5cn[nH]c5c4)c3O)cc2Cl)c1=O (stereo not drawn)", "GI50", "0.3 to 30 nM"],
  ["Cc1cc(-c2cncc(N3CCN[C@H](C)C3)c2)c(O)c(-c2ccc(-n3ccn(C)c3=O)c(Cl)c2)c1", "GI50", "0.3 to 30 nM"],
  ["Cn1ccn(-c2ccc(-c3cc(F)cc(-c4ccnc(N5CCN(CC(C)(C)C)CC5)c4)c3O)cc2Cl)c1=O", "GI50", "30 to 300 nM"],
  ["Cn1ccn(-c2ccc(-c3cc(F)cc(-c4ccnc(N5CCC(C)(N6CCCC6)C5)c4)c3O)cc2Cl)c1=O (stereo not drawn)", "GI50", "0.3 to 30 nM"],
  ["O=C1CCCN1c1ccc(-c2cccc(-c3ccnc(N4CCNCC4)c3)c2O)cc1F", "GI50", "30 to 300 nM"],
  ["CC(=O)N(C)C1(c2cccc(-c3cc(F)cc(-c4ccc(-n5ccn(C)c5=O)c(Cl)c4)c3O)c2)CC1", "GI50", "300 to 3000 nM"],
  ["CN1CCN(c2ccc(-c3cc(-c4ccccc4)cc(-c4ccnc(N5CCNCC5)c4)c3O)cc2Cl)C1=O", "GI50", "300 to 3000 nM"]
]}

Can you share its GI50? I mean this compound: CC(=O)Nc1ccc(-c2cccc(-c3cncc(N4CCNCC4)c3)c2O)cc1F
30 to 300 nM

Can you share its GI50? I mean this compound: [2H]C([2H])([2H])n1ccn(-c2ccc(-c3cc(F)cc(-c4ccnc(N5CC[C@H](NC)C5)c4)c3O)cc2Cl)c1=O
0.3 to 30 nM

Can you share its GI50? I mean this compound: Cn1ccn(-c2ccc(-c3cc(F)cc(-c4ccnc(N5CCC(C)(O)CC5)c4)c3O)cc2Cl)c1=O
30 to 300 nM

Can you share its GI50? I mean this compound: COCCCn1cc(-c2cc(F)cc(-c3ccc(-n4ccn(C)c4=O)c(Cl)c3)c2O)cc(N2CCN[C@H](C)C2)c1=O
30 to 300 nM

Can you share its GI50? I mean this compound: C[C@H]1CCCN(c2cc(-c3cc(F)cc(-c4ccc(-n5ccn(C)c5=O)c(Cl)c4)c3O)cc3[nH]ncc23)C1
300 to 3000 nM

* * *

Tested on: human SKM-1 acute myeloid leukemia cells
Procedure Text: SKM-1 antiproliferation cell-based assay (ATPlite)
Condition Context: Homo sapiens, SKM-1, 96 h, SKM-1 antiproliferation assay, 4 days, Table C2
As shown below, each of these compounds has a reported GI50 value.

A selection of reference data follows.
{"columns": ["Compound", "Assayed System", "Readout", "Meas Value"],
 "data": [
  ["Cc1cc(-c2cc(-c3cn[nH]c3)nc(N3CCNCC3)c2)c(O)c(-c2ccc(-n3ccn(C)c3=O)c(Cl)c2)c1 [Example 566]", "human SKM-1 acute myeloid leukemia cells", "GI50", "0.3 to 30 nM"],
  ["Cn1ccn(-c2ccc(-c3cc(F)cc(-c4ccc(OC5CCNCC5)nc4)c3O)cc2Cl)c1=O [Example 445]", "human SKM-1 acute myeloid leukemia cells", "GI50", "300 to 3000 nM"],
  ["O=C1NCCN1c1ccc(-c2cccc(-c3ccnc(N4CCNCC4)c3)c2O)cc1F [Example 231]", "human SKM-1 acute myeloid leukemia cells", "GI50", "300 to 3000 nM"],
  ["COCCCN1CCN(c2cc(-c3cc(F)cc(-c4ccc(-n5ccn(C)c5=O)c(Cl)c4)c3O)ccn2)CC1 [Example 633]", "human SKM-1 acute myeloid leukemia cells", "GI50", "0.3 to 30 nM"],
  ["CC(=O)Nc1ccc(-c2cc(F)cc(-c3ccnc(N4CCNCC4)c3)c2O)cc1F [Example 224]", "human SKM-1 acute myeloid leukemia cells", "GI50", "30 to 300 nM"],
  ["COCCC1CN(c2cc(-c3cc(F)cc(-c4ccc(-n5ccn(C)c5=O)c(Cl)c4)c3O)ccn2)CCN1 (stereo not drawn) [Example 676]", "human SKM-1 acute myeloid leukemia cells", "GI50", "0.3 to 30 nM"],
  ["CC(C)N1CCC2CN(c3cc(-c4cc(F)cc(-c5ccc(-n6ccn(C)c6=O)c(Cl)c5)c4O)ccn3)CC21 (stereo not drawn) [Example 727]", "human SKM-1 acute myeloid leukemia cells", "GI50", "0.3 to 30 nM"],
  ["Cn1ccn(-c2ccc(-c3cc(F)cc(-c4ccnc(N5CCC(C)(N)C5)c4)c3O)cc2Cl)c1=O (stereo not drawn) [Example 686]", "human SKM-1 acute myeloid leukemia cells", "GI50", "0.3 to 30 nM"],
  ["C[C@@H]1CN(c2cncc(-c3cc(F)cc(-c4ccc(-n5ccn(C)c5=O)c(Cl)c4)c3O)c2)CCN1 [Example 467]", "human SKM-1 acute myeloid leukemia cells", "GI50", "0.3 to 30 nM"],
  ["Cn1ccn(-c2ccc(-c3cc(F)cc(-c4cc(-c5cn[nH]c5)nc(N5CCNCC5)c4)c3O)cc2Cl)c1=O [Example 552]", "human SKM-1 acute myeloid leukemia cells", "GI50", "0.3 to 30 nM"]
]}

Can you share its GI50? I mean this compound: CN1CCN(c2ccc(-c3cccc(-c4ccc(CO)c(N5CCNCC5)c4)c3O)cc2Cl)C1=O [Example 317]
30 to 300 nM

Can you share its GI50? I mean this compound: CC(C)[C@@H]1CN(c2cc(-c3cc(F)cc(-c4ccc(-n5ccn(C)c5=O)c(Cl)c4)c3O)cc3[nH]ncc23)CCN1 [Example 597]
0.3 to 30 nM

Can you share its GI50? I mean this compound: CN1C2CCC1CN(c1cc(-c3cc(F)cc(-c4ccc(-n5ccn(C)c5=O)c(Cl)c4)c3O)ccn1)C2 [Example 513]
0.3 to 30 nM

Can you share its GI50? I mean this compound: CC(=O)Nc1cc(-c2cc(F)cc(-c3ccc(-n4ccn(C)c4=O)c(Cl)c3)c2O)cc(N2CC[C@H](N)C2)n1 [Example 503]
0.3 to 30 nM

Can you share its GI50? I mean this compound: CN1CCN(c2ccc(-c3cc(F)cc(-c4ccnc(N5CCNCC5)c4)c3O)cc2Cl)C1=O [Example 297]
30 to 300 nM
